Give abundance fitness for every item shown.
B1: Chromodomain-helicase-DNA-binding protein 3, residues 374 to 426; numbered along this chain, Q12873 (parent)
chain: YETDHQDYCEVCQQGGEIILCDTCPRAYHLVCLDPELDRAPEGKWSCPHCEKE

- Variants of: B1
- test-method-notes: abundance fitness (aPCA) (normalised: wild type 0, dead -1); higher = more abundant; growth selection in yeast, the domain comes from the species named
- test-settings: Homo sapiens
Simply state the number, no unit and no words.

What value of measured abundance fitness is listed for Y28T ?
-0.203

// query: L37P
-0.154

// query: G16V
-0.113

// query: D22S
0.048

// query: R26H
-0.17

// query: H5G
0.366

// query: I18V
-0.297

// query: E36R
0.018

// query: D7W
-0.767

// query: L20K
0.081

// query: T3G
0.136

// query: E36L
-0.114

// query: Q13K
-0.051

// query: C32R
-1.06

// query: T3C
-0.048

// query: Y1G
0.416

// query: E36N
0.143

// query: G15L
-0.366

// query: Y8G
0.165

// query: P25N
-0.204

// query: P35Y
0.015

// query: I18Q
-0.107
